All figures here come from ChEMBL document CHEMBL2176918.

target: Diacylglycerol O-acyltransferase 1 (Homo sapiens, UniProt O75907); assay: Inhibition of DGAT1 in human adipose tissue assessed as reduction in triacylglycerol synthesis
Sequence (O75907 whole entry): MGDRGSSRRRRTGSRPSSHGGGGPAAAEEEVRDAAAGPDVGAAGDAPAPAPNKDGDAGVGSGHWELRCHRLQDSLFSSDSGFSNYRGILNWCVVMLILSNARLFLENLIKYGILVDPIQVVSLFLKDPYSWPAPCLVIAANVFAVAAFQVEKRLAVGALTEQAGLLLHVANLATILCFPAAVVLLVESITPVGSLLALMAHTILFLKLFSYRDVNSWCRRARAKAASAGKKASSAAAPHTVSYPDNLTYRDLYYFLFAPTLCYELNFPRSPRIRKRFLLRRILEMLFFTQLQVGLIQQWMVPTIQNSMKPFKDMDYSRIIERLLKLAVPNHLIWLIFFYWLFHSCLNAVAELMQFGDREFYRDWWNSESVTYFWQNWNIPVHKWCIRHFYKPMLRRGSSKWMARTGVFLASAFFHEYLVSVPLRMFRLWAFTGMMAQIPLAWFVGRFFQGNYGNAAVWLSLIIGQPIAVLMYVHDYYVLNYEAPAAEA
reported.endpoint: IC50 (nM)

INSERT INTO assay_data (compound, quantity_unit, observed) VALUES
  ('Cc1nc(C)c(-c2ccc(C3CCC(CC(=O)O)CC3)cc2)nc1C(N)=O (stereo unspecified) [AZD-7687]', 'nM', 10);

* * *

experiment: Volume of distribution in C57BL/6 mouse at 8.16 uM/kg, po or 5.4 uM/kg, iv; format: ADME, organism-based; details: in vivo
reported.endpoint: Vd (L/kg)

INSERT INTO measurements (compound, quantity_unit, observed) VALUES
  ('Cc1nc(C)c(-c2ccc(C3CCC(CC(=O)O)CC3)cc2)nc1C(N)=O (stereo unspecified)', 'L/kg', 0.9);

* * *

molecular target: UniProt Q9ERM3; assay: Inhibition of DGAT1 in rat adipose tissue assessed as reduction in triacylglycerol synthesis; assay type: tissue-based
Sequence (Q9ERM3 whole entry): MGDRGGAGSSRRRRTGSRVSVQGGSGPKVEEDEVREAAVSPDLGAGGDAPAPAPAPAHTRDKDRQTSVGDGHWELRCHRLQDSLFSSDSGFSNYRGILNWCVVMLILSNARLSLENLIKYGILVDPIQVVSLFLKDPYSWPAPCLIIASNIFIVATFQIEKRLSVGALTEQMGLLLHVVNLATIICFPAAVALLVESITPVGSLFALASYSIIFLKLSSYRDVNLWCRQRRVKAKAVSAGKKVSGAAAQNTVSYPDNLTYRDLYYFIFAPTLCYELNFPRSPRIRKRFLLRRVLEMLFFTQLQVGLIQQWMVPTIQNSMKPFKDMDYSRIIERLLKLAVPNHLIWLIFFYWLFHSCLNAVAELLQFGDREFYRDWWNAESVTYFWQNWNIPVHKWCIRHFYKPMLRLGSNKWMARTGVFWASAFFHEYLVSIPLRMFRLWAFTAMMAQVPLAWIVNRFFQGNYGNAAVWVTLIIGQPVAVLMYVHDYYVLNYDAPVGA
reported.endpoint: IC50 (µM)

INSERT INTO measurements (compound, reported_endpoint, observed) VALUES
  ('Cc1nc(C)c(-c2ccc(C3CCC(CC(=O)O)CC3)cc2)nc1C(N)=O (stereo unspecified)', 'IC50', 0.09);

* * *

assay: Intrinsic clearance in human hepatocytes assessed as parent compound disappearance at 1 uM per 10^6 cells; type: ADME, cell-based, Hepatocyte; details: read-out: CLH
reported.endpoint: hepatocyte CLint at 1 µM

INSERT INTO assay_data (molecule, reported_endpoint, observed) VALUES
  ('Cc1nc(C)c(-c2ccc(C3CCC(CC(=O)O)CC3)cc2)nc1C(N)=O (stereo unspecified) [AZD-7687]', 'hepatocyte CLint at 1 µM', '< 2 µL/min/1e6 cells');

* * *

Biological target: Cytochrome P450 1A2 (Homo sapiens)
Sequence (P05177 whole entry): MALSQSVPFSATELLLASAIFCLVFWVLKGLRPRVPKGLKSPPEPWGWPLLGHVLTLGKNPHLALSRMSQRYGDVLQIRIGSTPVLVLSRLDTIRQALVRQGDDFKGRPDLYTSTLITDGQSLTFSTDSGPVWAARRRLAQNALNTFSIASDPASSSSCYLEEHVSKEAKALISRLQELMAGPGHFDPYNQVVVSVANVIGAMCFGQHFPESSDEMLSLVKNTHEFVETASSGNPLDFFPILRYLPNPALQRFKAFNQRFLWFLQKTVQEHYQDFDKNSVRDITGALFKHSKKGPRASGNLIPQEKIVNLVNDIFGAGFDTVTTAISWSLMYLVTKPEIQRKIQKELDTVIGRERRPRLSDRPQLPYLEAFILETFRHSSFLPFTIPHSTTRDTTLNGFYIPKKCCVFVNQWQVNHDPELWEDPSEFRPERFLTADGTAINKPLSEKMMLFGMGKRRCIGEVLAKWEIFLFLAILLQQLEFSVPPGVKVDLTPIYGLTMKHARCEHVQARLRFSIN
pIC50: −log10 of the molar value.
reported.endpoint: pIC50

INSERT INTO measurements (compound, measurement_target, reported_endpoint, observed) VALUES
  ('Cc1nc(C)c(-c2ccc(C3CCC(CC(=O)O)CC3)cc2)nc1C(N)=O (stereo unspecified) [AZD-7687]', 'Cytochrome P450 1A2 (Homo sapiens)', 'pIC50', '< 4.52');

* * *

biological target: cAMP and cAMP-inhibited cGMP 3',5'-cyclic phosphodiesterase 10A (Homo sapiens, UniProt Q9Y233)
Sequence (Q9Y233 whole entry): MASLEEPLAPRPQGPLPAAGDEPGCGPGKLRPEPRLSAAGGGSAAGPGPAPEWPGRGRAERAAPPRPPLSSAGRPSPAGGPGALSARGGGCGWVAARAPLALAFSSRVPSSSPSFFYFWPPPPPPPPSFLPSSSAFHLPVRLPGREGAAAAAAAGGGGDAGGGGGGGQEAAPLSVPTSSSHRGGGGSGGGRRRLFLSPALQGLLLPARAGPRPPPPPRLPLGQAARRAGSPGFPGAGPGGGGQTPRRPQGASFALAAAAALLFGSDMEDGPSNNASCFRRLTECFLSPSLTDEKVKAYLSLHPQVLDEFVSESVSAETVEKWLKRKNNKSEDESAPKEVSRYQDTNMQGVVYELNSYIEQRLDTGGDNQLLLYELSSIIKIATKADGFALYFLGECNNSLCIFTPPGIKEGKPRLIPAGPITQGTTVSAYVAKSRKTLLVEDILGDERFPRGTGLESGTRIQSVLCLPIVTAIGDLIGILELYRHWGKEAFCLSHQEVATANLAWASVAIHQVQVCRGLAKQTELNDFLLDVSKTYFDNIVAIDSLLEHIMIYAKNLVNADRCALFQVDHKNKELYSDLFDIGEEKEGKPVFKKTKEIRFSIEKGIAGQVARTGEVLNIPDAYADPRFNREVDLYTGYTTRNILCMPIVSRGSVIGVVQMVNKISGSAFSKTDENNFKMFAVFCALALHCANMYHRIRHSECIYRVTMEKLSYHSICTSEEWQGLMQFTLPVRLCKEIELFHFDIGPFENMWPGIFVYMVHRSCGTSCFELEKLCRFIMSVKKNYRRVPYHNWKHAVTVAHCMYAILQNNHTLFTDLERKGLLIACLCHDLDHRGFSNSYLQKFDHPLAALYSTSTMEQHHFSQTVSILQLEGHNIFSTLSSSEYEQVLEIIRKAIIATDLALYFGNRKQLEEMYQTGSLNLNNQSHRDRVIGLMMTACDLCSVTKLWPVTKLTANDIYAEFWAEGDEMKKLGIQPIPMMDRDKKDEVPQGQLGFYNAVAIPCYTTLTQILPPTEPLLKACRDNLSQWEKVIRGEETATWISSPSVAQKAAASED
pIC50: −log10 of the molar value.
reported.endpoint: pIC50

INSERT INTO results (compound, observed) VALUES
  ('Cc1nc(C)c(-c2ccc(C3CCC(CC(=O)O)CC3)cc2)nc1C(N)=O (stereo unspecified)', 5.26);

* * *

experiment: Fraction unbound in dog plasma; type: ADME, cell-free, Canis lupus familiaris
reported.endpoint: fraction unbound

INSERT INTO results (compound, reported_endpoint, observed) VALUES
  ('Cc1nc(C)c(-c2ccc(C3CCC(CC(=O)O)CC3)cc2)nc1C(N)=O (stereo unspecified)', 'fraction unbound', 0.06);

* * *

assay: Fraction unbound in human plasma at 37 degC by LC-UV/MS method based equilibrium dialysis method
Documented fraction unbound across a set of compounds
reported.endpoint: fraction unbound

INSERT INTO results (smiles, observed) VALUES
  ('Cc1nc(C)c(-c2ccc([C@H]3CC[C@H](Cc4nnn[nH]4)CC3)cc2)nc1C(N)=O', 0.009),
  ('Cc1nc(C)c(-c2ccc(C34CCC(C(=O)O)(CC3)CC4)cc2)nc1C(N)=O', 0.006),
  ('NC(=O)c1cncc(-c2ccc([C@H]3CC[C@H](CCO)CC3)cc2)n1', 0.028),
  ('Cc1nc(C)c(-c2ccc3c(c2)CC[C@]32CC[C@@H](CC(=O)O)CC2)nc1C(N)=O', 0.013),
  ('Cc1nc(C)c(-c2ccc([C@H]3CC[C@H](CC(N)=O)CC3)cc2)nc1C(N)=O', 0.13);

* * *

assay: Terminal half life in human at 1 to 20 mg; type: ADME, organism-based; settings: in vivo, read-out: beta t1/2 (converted)
reported.endpoint: half-life (h)

INSERT INTO assay_data (compound, observed) VALUES
  ('Cc1nc(C)c(-c2ccc(C3CCC(CC(=O)O)CC3)cc2)nc1C(N)=O (stereo unspecified)', 9);

* * *

assay: Solubility in 0.1 M phosphate buffer at pH 7.4 at 25 degC incubated for 24 hrs
Measured solubility at 24 h, listed per entry for reference.
reported.endpoint: solubility at 24 h

INSERT INTO results (compound, reported_endpoint, observed) VALUES
  ('Cc1nc(C)c(-c2ccc(C34CCC(C(=O)O)(CC3)CC4)cc2)nc1C(N)=O', 'solubility at 24 h', '113 µM'),
  ('NC(=O)c1cncc(-c2ccc([C@H]3CC[C@H](CCO)CC3)cc2)n1', 'solubility at 24 h', '3 µM'),
  ('CC(C)(NC(=O)C[C@H]1CC[C@H](c2ccc(-c3cncc(C(N)=O)n3)cc2)CC1)C(=O)O', 'solubility at 24 h', '> 100 µM'),
  ('Cc1ncc(C(N)=O)nc1-c1ccc([C@H]2CC[C@H](C(=O)O)CC2)cc1', 'solubility at 24 h', '1200 µM'),
  ('Cc1nc(C)c(-c2ccc([C@H]3CC[C@H](CC(=O)NS(C)(=O)=O)CC3)cc2)nc1C(N)=O', 'solubility at 24 h', '100 µM'),
  ('Cc1nc(C)c(-c2ccc(C3CCC(CC(=O)O)CC3)cc2)nc1C(N)=O (stereo unspecified) [AZD-7687]', 'solubility at 24 h', '700 µM'),
  ('Cc1nc(C)c(-c2ccc3c(c2)CC[C@]32CC[C@@H](CC(=O)O)CC2)nc1C(N)=O', 'solubility at 24 h', '562 µM'),
  ('NC(=O)C[C@H]1CC[C@H](c2ccc(-c3cncc(C(N)=O)n3)cc2)CC1', 'solubility at 24 h', '< 1 µM'),
  ('Cc1nc(C)c(-c2ccc([C@H]3CC[C@H](CCO)CC3)cc2)nc1C(N)=O', 'solubility at 24 h', '4 µM'),
  ('Cc1ncc(C(N)=O)nc1-c1ccc([C@H]2CC[C@H](CC(=O)O)CC2)cc1', 'solubility at 24 h', '> 100 µM'),
  ('Cc1nc(C)c(-c2ccc([C@H]3CC[C@H](CC(=O)NC(C)(C)C(=O)O)CC3)cc2)nc1C(N)=O', 'solubility at 24 h', '86 µM');

* * *

assay: Clearance in Han-Wistar rat at 5.4 uM/kg, po or 2.7 uM/kg, iv; format: ADME, organism-based; details: in vivo
reported.endpoint: clearance (mL/min/kg)

INSERT INTO assay_data (compound, reported_endpoint, observed) VALUES
  ('Cc1nc(C)c(-c2ccc(C3CCC(CC(=O)O)CC3)cc2)nc1C(N)=O (stereo unspecified) [AZD-7687]', 'clearance', 0.5);

* * *

test: Tmax in human at 1 to 20 mg; assay type: ADME, organism-based; conditions: in vivo
reported.endpoint: Tmax

INSERT INTO assay_data (compound, observed) VALUES
  ('Cc1nc(C)c(-c2ccc(C3CCC(CC(=O)O)CC3)cc2)nc1C(N)=O (stereo unspecified) [AZD-7687]', '≤ 1 h');

* * *

target: UniProt P35610
Sequence (P35610 whole entry): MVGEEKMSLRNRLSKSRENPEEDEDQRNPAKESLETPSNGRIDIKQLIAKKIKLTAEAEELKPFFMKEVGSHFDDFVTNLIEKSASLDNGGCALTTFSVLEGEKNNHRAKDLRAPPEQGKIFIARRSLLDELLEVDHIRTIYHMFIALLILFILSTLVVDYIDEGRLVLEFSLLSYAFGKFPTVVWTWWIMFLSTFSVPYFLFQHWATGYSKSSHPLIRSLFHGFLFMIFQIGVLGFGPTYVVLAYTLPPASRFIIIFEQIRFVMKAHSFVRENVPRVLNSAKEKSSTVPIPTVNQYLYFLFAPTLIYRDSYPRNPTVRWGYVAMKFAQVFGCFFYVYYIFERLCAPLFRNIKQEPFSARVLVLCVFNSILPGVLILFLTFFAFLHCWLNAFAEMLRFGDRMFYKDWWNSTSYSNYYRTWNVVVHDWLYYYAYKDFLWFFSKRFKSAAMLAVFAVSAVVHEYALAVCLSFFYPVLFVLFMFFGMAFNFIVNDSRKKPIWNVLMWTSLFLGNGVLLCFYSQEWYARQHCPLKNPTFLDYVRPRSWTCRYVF
reported.endpoint: IC50 (nM)

INSERT INTO results (smiles, observed) VALUES
  ('Cc1nc(C)c(-c2ccc3c(c2)CC[C@]32CC[C@@H](CC(=O)O)CC2)nc1C(N)=O', 2400);

* * *

test: Oral bioavailability in rat; conditions: in vivo
reported.endpoint: bioavailability (%)

INSERT INTO measurements (smiles, quantity_unit, observed) VALUES
  ('Cc1nc(C)c(-c2ccc([C@H]3CC[C@H](CC(=O)NC(C)(C)C(=O)O)CC3)cc2)nc1C(N)=O', '%', 19),
  ('NC(=O)c1cncc(-c2ccc([C@H]3CC[C@H](CC(=O)O)CC3)cc2)n1', '%', 62);
